src = paper PMC9927415

STUDY TARGET: panel of 203 kinases (Homo sapiens, UniProt P09769)
Construct: purchased DiscoverX (KINOMEscan)
Sequence (P09769 whole entry): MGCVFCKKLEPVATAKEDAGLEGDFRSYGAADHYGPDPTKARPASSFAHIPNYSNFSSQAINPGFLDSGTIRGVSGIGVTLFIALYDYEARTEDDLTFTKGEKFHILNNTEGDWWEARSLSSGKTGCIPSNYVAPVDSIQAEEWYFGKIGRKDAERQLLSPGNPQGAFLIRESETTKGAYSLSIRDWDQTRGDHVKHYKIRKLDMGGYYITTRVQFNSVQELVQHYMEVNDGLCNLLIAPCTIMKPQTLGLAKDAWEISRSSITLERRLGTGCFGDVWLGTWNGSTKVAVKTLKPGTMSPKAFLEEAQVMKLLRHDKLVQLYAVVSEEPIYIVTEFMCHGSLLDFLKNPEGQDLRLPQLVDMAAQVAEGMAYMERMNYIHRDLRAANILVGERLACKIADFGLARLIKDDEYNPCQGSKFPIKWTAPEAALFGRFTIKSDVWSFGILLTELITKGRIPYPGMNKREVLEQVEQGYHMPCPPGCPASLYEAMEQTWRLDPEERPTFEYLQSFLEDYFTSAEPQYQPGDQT
TEST DETAILS: KINOMEscan competitive binding, whole panel
EXPERIMENTAL CONTEXT: 10 µM, n=1; kinase FGR; read-out: Percent inhibition FGR
Everything with inhibition at 10 µM lower than 70% is Criterion not met; everything else, including exactly 70%, is Criterion met.

See these solved cases before continuing.
c1ccc(COc2cccc(-c3ccnc4[nH]ccc34)c2)cc1 = Criterion not met
C[C@@H](Oc1cc(-c2cnc3ccccn23)sc1C(N)=O)c1ccccc1Cl = Criterion not met
Nc1ncc2c(-c3ccncc3)c[nH]c2n1 = Criterion met
Clc1ccc(Nc2ncc(-c3ccccc3)s2)cc1 = Criterion not met
COc1cc(Nc2nccc(-c3sc(N)nc3-c3cccc(NC(=O)c4c(F)cccc4F)c3)n2)cc(OC)c1OC = Criterion met

INPUT: Textbook exercise: given the entry Fc1cccc(COc2ccc(Nc3ncnc4c3CN(CCN3CCOCC3)CC4)cc2Cl)c1 , state whether its inhibition at 10 µM is greater than or equal to 70%.
OUTPUT: Criterion not met

INPUT: Given Cc1ccc(O)cc1N(C)c1ccnc(Nc2cccc(S(N)(=O)=O)c2)n1 , state whether its inhibition at 10 µM is at least 70%.
OUTPUT: Criterion met

INPUT: Determine whether measured inhibition at 10 µM meets or exceeds 70% for Cc1ccc(O)cc1Nc1ccnc(Nc2cccc(C(N)=O)c2)n1
OUTPUT: Criterion met

INPUT: Is reported inhibition at 10 µM greater than or equal to 70% here: CN1CCN(c2ccc(Nc3nccc(-c4cnn5ncccc45)n3)cc2C#N)CC1
OUTPUT: Criterion met

INPUT: Could you please find out whether COc1ccc(Nc2nccc(-c3cnn4ncccc34)n2)cc1 has inhibition at 10 µM that meets 70% or exceeds it?
OUTPUT: Criterion not met

---

STUDY TARGET: AXL (Homo sapiens, UniProt P30530)
Construct: purchased DiscoverX (KINOMEscan)
Sequence (P30530 26-894): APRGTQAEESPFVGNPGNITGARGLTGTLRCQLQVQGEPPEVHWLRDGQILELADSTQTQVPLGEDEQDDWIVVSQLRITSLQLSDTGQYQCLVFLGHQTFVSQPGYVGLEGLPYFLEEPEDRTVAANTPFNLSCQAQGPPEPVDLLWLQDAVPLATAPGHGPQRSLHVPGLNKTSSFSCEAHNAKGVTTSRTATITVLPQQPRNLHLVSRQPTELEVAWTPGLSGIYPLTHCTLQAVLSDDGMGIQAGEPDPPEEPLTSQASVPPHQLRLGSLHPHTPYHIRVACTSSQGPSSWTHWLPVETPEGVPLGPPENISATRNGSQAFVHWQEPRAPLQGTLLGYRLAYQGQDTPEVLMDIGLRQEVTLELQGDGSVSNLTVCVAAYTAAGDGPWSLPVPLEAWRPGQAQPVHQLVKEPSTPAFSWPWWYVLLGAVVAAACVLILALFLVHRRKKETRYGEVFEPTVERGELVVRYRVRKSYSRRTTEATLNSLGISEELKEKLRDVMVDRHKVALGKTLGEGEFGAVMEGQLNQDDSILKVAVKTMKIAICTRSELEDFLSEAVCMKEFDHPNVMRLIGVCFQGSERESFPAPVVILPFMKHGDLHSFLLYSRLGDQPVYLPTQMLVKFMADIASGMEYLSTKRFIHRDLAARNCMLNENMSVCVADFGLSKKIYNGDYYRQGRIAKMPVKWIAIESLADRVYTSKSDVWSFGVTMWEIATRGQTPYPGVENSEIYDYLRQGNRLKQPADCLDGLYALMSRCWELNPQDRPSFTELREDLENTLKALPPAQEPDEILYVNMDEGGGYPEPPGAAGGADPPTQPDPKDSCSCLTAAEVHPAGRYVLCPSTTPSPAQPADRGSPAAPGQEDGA
TEST DETAILS: KINOMEscan competitive binding
EXPERIMENTAL CONTEXT: 10 µM, n=1; kinase AXL; read-out: Percent inhibition AXL
QUANTITY: inhibition at 10 µM (%)
# unit: % | format: bare number

INPUT: State, in one line, measured inhibition at 10 µM of CN1CCN(c2ccc(Nc3nccc(-c4cnn5ncccc45)n3)cc2C#N)CC1
OUTPUT: 100

INPUT: Retrieve inhibition at 10 µM measured for COc1cc(Nc2nccc(-c3sc(N)nc3-c3cccc(NC(=O)c4c(F)cccc4F)c3)n2)cc(OC)c1OC and print it.
OUTPUT: 99

INPUT: Identify measured inhibition at 10 µM associated with c1ccc(COc2cccc(-c3ccnc4[nH]ccc34)c2)cc1
OUTPUT: 93.8

INPUT: Return inhibition at 10 µM for the following compound: Fc1cccc(COc2ccc(Nc3ncnc4c3CN(CCN3CCOCC3)CC4)cc2Cl)c1
OUTPUT: 0

INPUT: Read off the recorded inhibition at 10 µM for Nc1ncc2c(-c3ccncc3)c[nH]c2n1
OUTPUT: 0

---

STUDY TARGET: panel of 203 kinases (Homo sapiens, UniProt P54753)
Construct: purchased DiscoverX (KINOMEscan)
Sequence (P54753 34-998): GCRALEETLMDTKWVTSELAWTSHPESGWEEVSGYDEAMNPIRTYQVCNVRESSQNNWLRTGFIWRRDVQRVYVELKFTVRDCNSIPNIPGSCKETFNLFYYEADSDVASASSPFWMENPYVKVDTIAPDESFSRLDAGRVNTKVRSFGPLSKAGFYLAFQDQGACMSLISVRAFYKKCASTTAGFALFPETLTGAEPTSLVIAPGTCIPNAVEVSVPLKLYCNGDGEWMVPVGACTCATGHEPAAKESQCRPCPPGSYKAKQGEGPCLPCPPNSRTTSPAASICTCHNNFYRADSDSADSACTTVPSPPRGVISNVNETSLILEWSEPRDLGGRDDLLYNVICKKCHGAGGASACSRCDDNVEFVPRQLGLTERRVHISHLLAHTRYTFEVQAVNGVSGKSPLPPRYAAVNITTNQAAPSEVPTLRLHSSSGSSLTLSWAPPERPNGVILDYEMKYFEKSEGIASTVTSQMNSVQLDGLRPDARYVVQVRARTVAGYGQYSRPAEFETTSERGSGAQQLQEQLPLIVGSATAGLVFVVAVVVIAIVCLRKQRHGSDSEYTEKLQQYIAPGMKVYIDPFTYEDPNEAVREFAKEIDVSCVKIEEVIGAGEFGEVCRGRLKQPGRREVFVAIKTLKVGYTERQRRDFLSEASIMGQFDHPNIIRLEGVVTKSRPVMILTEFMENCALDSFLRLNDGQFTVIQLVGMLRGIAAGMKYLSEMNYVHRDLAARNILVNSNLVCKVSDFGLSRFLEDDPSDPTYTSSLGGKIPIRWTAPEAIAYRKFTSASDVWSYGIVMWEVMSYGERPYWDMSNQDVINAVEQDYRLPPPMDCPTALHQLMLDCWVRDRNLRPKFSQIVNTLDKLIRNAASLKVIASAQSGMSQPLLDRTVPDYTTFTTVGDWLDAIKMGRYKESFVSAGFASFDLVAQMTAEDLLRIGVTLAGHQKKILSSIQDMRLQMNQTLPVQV
TEST DETAILS: KINOMEscan competitive binding, whole panel
EXPERIMENTAL CONTEXT: 10 µM, n=1; kinase EPHB3; read-out: Percent inhibition EPHB3
QUANTITY: inhibition at 10 µM (%)
# value in %; strip the unit string

COc1ccc(Nc2nccc(-c3cnn4ncccc34)n2)cc1 = 0
Cc1ccc(O)cc1Nc1ccnc(Nc2cccc(C(N)=O)c2)n1 = 100
COc1cc(Nc2nccc(-c3sc(N)nc3-c3cccc(NC(=O)c4c(F)cccc4F)c3)n2)cc(OC)c1OC = 0
Cc1ccc(O)cc1N(C)c1ccnc(Nc2cccc(S(N)(=O)=O)c2)n1 = 100
Nc1ncc2c(-c3ccncc3)c[nH]c2n1 = 0
CN1CCN(c2ccc(Nc3nccc(-c4cnn5ncccc45)n3)cc2C#N)CC1 = 0
c1ccc(COc2cccc(-c3ccnc4[nH]ccc34)c2)cc1 = 0
C[C@@H](Oc1cc(-c2cnc3ccccn23)sc1C(N)=O)c1ccccc1Cl = 0

INPUT: Hello, please tell me recorded inhibition at 10 µM for this one: Clc1ccc(Nc2ncc(-c3ccccc3)s2)cc1
OUTPUT: 0

INPUT: Look up and report measured inhibition at 10 µM for this entry: Fc1cccc(COc2ccc(Nc3ncnc4c3CN(CCN3CCOCC3)CC4)cc2Cl)c1
OUTPUT: 0

---

STUDY TARGET: PKN2 (Homo sapiens)
Construct: purchased DiscoverX (KINOMEscan)
Sequence (Q16513 whole entry): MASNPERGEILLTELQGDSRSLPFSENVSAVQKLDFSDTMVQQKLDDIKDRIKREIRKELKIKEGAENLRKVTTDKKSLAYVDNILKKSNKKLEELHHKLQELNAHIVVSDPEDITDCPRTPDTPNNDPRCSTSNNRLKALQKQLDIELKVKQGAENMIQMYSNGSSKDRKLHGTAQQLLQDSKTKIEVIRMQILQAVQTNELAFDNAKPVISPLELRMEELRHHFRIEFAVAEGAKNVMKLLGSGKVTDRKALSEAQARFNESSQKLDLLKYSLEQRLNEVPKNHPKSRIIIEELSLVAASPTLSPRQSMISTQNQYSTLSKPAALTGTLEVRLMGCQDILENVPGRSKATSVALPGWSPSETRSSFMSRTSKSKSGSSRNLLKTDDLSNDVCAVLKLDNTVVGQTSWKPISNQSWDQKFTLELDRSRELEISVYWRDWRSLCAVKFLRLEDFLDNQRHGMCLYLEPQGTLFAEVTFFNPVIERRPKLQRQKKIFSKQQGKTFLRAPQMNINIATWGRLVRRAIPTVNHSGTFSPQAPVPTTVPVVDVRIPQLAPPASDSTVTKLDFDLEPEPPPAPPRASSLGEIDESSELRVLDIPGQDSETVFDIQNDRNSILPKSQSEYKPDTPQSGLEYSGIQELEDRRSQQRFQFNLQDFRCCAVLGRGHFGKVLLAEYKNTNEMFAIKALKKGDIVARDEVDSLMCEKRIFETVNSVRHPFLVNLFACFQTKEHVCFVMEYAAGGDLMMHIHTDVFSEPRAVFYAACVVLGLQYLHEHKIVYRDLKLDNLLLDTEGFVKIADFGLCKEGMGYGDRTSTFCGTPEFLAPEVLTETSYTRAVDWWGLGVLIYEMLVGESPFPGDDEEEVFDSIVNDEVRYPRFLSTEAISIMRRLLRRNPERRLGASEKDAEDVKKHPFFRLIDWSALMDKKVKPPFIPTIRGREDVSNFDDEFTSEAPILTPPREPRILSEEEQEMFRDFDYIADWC
TEST DETAILS: KINOMEscan competitive binding
EXPERIMENTAL CONTEXT: n=1, read-out: Percent inhibition, PKN2
QUANTITY: inhibition at 10 µM (%)
State the answer as a number, implicitly in %.

Consider the worked cases shown below.
Cc1ccc(O)cc1N(C)c1ccnc(Nc2cccc(S(N)(=O)=O)c2)n1 = 0
COc1cc(Nc2nccc(-c3sc(N)nc3-c3cccc(NC(=O)c4c(F)cccc4F)c3)n2)cc(OC)c1OC = 0
Clc1ccc(Nc2ncc(-c3ccccc3)s2)cc1 = 0
C[C@@H](Oc1cc(-c2cnc3ccccn23)sc1C(N)=O)c1ccccc1Cl = 79.3

INPUT: Return value of inhibition at 10 µM for input Cc1ccc(O)cc1Nc1ccnc(Nc2cccc(C(N)=O)c2)n1 , no commentary.
OUTPUT: 0
